- measurement.protocol: OD615 S. cerevisiae growth inhibition, permissive medium, pilot counter-assay, permissive growth control for S. cerevisiae lifespan shortening project (AID 705)
- experimental.parameters: OD615, 24 h, at 10 µM, active compounds read high
measured.property: growth inhibition (%)
Numbers only; they are read as %.

// solved cases for growth inhibition follow
>>> test_value("COc1ccc(Cl)cc1C(=O)NCC(c1ccco1)N1CCCC1 (stereo unspecified)")
-8.88
>>> test_value("CC(C)C(NC(=O)C12CC3CC(CC(C3)C1)C2)C(=O)NC1=NCCS1 (stereo unspecified)")
-6.21

# input for lookup
(Q) Fill in: growth inhibition of COc1ccc(NC2CS(=O)(=O)CC2NCc2ccco2)cc1 (stereo unspecified) is ___
(A) 3.62

====

RAM network inhibition listing for selected molecules.
- measurement.protocol: RAM signaling pathway blockade in yeast – S. cerevisiae, Pdr1DBD-CYC8 efflux-inhibited sensitized strain, primary screen (AID 1298);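 note: 0% = DMSO untreated cells without growth and 100% = 10 µM 1-NA-PP1 full growth; higher means more yeast growth rescued from 5-FOA killing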
- experimental.parameters: S. cerevisiae cbk1-as DSE1-URA3 strain, 5-FOA growth OD615, 2 d; at 50 µM; active compounds read high
Reply numerically in %, unit not repeated.

(Q) Which measured RAM network inhibition value corresponds to `CC(C)(C)SCCNS(=O)(=O)c1ccccc1` ?
(A) 3.01

(Q) Please answer likewise for `CCOC(=O)N1CCC(NC(=O)CSCc2nc(-c3sccc3C)oc2C)CC1`
(A) 6.2

====

- measurement.protocol: viability gain of MRP-1-high H69AR cells under doxorubicin, pilot screen, MRP-1 activator project, CellTiter-Glo, duplicate (AID 807);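 note: compound pretreatment 18-22 h then 72 h combined with doxorubicin; 0% = doxorubicin alone and 100% = vehicle without doxorubicin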
- experimental.parameters: H69AR viability with doxorubicin, CellTiter-Glo luminescence; at 10 µM; active compounds read high
Entries and their viability increase
Hi! Could you send only the number? It should be in %, unit omitted.

>>> test_value("CCc1ccc(C2CC(c3ccccc3)Nc3nc(N)nn32)cc1 (stereo unspecified)")
0.7

(Q) Consider the compound CC(c1ccccc1)N1CC(C(=O)N2CCN(c3ccccc3)CC2)CC1=O (stereo unspecified) and give its measured viability increase.
(A) -1.1

(Q) Query `CCCCNC(=O)Nc1cc(C(=O)OC)ccc1C` next
(A) 0.11

(Q) Follow-up entry: `C/C(=C1\SC(N2CCOCC2)=NC1=O)c1ccccc1`
(A) -2.49

(Q) Do the same for CC(=O)c1ccc(NC(=O)C2CCCN2S(=O)(=O)c2ccc(F)cc2)cc1 (stereo unspecified) please
(A) 0.59

(Q) And then `CCCCN(C(=O)NC(=O)Nc1nc2ccc(OC)cc2s1)S(C)(=O)=O` , what is it?
(A) -0.44

====

- measurement.protocol: growth suppression of PTEN-deleted HCT116, pilot screen, cell-based, HCT116 clonal line, CellTiter-Glo (AID 824);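 note: 0% = 20 µM Hyamine control and 100% = vehicle cell control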
- experimental.parameters: 60 h, at 10 µM, active compounds read low
Results filed as inconclusive are left out.
Here, each record is paired with measured viability data.
Hi! Could you send only the number? It should be in %, unit omitted.

Worked set:
>>> test_value("O=C(NCc1cn2ccsc2n1)c1c(F)cccc1Cl")
99.6
>>> test_value("COc1cccc(CNC(=O)C2CCN(S(=O)(=O)c3cccc4cccnc34)CC2)c1")
97.5
>>> test_value("O=C(NCC(c1cccs1)N1CCOCC1)c1cc2ccccc2o1 (configuration not stated)")
100
>>> test_value("COc1cccc2c(=O)n(CC(=O)NC3CCCCC3)ccc12")
90.3

(Q) Please give the measured viability for this molecule: CC(=O)C1C(c2ccc(O)cc2)NC(=O)NC1(O)C(F)(F)F (configuration not stated)
(A) 98.7

(Q) For `c1ccc(Cc2nnc3sc(-c4ccco4)nn23)cc1` then?
(A) 94.7

(Q) Follow-up item: `CCn1cc(C(=O)NCCCN2CCC(C)CC2)c2cc(OC)c(OC)cc2c1=O`
(A) 92

(Q) Similarly, Cc1ccc2c(c1)NC(=O)C(CC(=O)NCCCN1CCCCC1C)O2 (configuration not stated) ?
(A) 101

(Q) # repeat for `S=c1[nH]nc(-c2ccncc2)n1Cc1ccccc1`
(A) 93.7

(Q) Another: `COc1ccc(CCNC(=O)c2cnccn2)cc1`
(A) 87.2

(Q) Then what about the molecule CCc1cccc(C)c1NC(=O)C1CCCO1 (configuration not stated) ?
(A) 88.1

(Q) Also check CC1=C(C(=O)OCc2ccc3c(c2)OCO3)C(c2ccc(Cl)cc2)NC(=O)N1 (configuration not stated)
(A) 22.3
